Reported huB7-H3 ka(1/Ms) is given for each of the following molecules.
- Measured on: T1, huB7-H3 (Homo sapiens, UniProt Q5ZPR3)
- T1 construct: His tag (6xHis) (C)
- T1 sequence (Q5ZPR3 with tags, fused parts or gaps): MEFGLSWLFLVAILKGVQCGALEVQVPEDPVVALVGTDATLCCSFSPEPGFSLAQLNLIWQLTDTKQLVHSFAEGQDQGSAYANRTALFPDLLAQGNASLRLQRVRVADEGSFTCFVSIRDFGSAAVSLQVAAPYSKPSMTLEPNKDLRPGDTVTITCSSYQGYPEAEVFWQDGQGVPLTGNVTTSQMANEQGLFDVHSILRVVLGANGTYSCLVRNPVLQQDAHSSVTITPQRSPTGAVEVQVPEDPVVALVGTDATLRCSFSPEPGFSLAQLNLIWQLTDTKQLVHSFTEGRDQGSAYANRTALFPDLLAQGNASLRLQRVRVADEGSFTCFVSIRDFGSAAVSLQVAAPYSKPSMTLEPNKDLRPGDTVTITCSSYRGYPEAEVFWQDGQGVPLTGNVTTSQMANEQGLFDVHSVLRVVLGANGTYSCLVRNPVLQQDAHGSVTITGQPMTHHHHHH
- Measurement description: Biacore T200 SPR binding kinetics, mAb capture
- Protocol conditions: Table 3
Lab book: enter the figure in M⁻¹ s⁻¹, no units written.

Ab17: mouse hybridoma anti-B7-H3 monoclonal antibody, mouse IgG2b/k (antibody, V domains shown) VH: EVKLVESGGGLVQPGGSLKLSCAASGFTFSSYIMSWVRQTPEKRLEWVASIVSSNITYYPDSMKGRFTISRDNARNILYLQMSSLKSEDTAMYYCARSGTRAWFAYWGQGTLVTVSA VL: DIVLTQSPASLAVSLGQRATISCRASKSVSTSAYSYMHWYQQKPGQPPKLLIYLASNLESGVPARFSGSGSGTDFTLNIHPVEEEDAATYYCQHSRELPYTFGGGTKLEIK :: 540000

Challenge: Quick one: huB7-H3 ka(1/Ms) for Ab18: mouse hybridoma anti-B7-H3 monoclonal antibody, mouse IgG1/k (antibody, V domains shown) VH: QVQLQQSAAELARPGASVKMSCKASGYSFTSYTIHWVKQRPGQGLEWIGYINPNSRNTDYNQKFKDETTLTADRSSSTAYMQLISLTSEDSAVYYCARYSGSTPYWYFDVWGAGTTVTVSS VL: QIVLTQSPAILSASPGEKVTMTCRASSSVSYMNWYQQKPGSSPKPWIYATSNLASGVPARFSVSVSGTSHSLTISRVEAEDAATYYCQQWSSNPLTFGAGTKLELK ?
Response given: 210000
